- tested_target: T1, human TL1A (Fitzgerald #30R-AT070) (human, UniProt O95150 72-251, limits assumed)
- T1 construct: Coated on the ELISA plate at 1 ug/mL; also called TNFSF15
- T1 sequence (looked up): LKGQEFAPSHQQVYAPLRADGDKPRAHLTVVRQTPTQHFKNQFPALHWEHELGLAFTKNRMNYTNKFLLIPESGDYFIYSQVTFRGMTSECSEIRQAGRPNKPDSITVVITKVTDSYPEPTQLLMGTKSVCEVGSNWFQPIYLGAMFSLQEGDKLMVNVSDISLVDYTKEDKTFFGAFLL
- procedure_text: ELISA titration, coated human TL1A, culture supernatant
What pKd was measured for each of the following?
Hey, just a heads up that pKd is the negative log base 10 of the concentration in molar.

### Prompt If you can, please state the reported pKd value of A88 (antibody, human IgG1, V domains shown, human IgG1/kappa (pFuse vectors), culture supernatant) VH: QVQLVQSGAEVKKPGASVKVSCKASGFDIQDTYMHWVRQAPGQGLEWMGRIEPASGHIKYDPKFQGRVTMTRDTSTSTVYMELSSLRSEDTAVYYCARSGGLPDWWGQGTTVTVSS VL: EIVLTQSPGTLSLSPGERATLSCRASSSVSYMYWYQQKPGQAPRLLIYATSNLASGIPDRFSGSGSGTDYTLTISRVEPEDFAVYYCQQWEGNPRTFGGGTKLEIK .
### Response 10.09

### Prompt And then A68 (antibody, human IgG1, V domains shown, human IgG1/kappa (pFuse vectors), culture supernatant) VH: QVQLVQSGAEVKKPGASVKVSCKASGFDIQDTYMHWVRQAPGQGLEWMGRIEPASGHIKYDPKFQVRVTITRDTSTSTVYMELSSLRSEDTAVYYCARSGGLPDWWGQGTTVTVSS VL: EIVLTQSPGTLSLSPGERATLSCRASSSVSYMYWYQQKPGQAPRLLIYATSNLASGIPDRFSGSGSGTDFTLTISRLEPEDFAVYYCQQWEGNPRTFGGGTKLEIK , what is it?
### Response 10.13
